Tested on: NCI-H226 lung
assay: NCI tumour cell line growth inhibition, 48 h; in the data active = GI50 below about 0.43 µM; inactive = the rest
Hi! Could you answer with just one of these? TRUE for active, FALSE for inactive

Answered cases to consult:
compound: CCN(CC)CCCNc1cccc2c(SCc3ccccc3)ccnc12
classLabel: FALSE
//
compound: CCC(C)n1cc(C)c2c(C(=O)NCc3c(C)cc(C)[nH]c3=O)cc(Br)cc21 (stereo unspecified)
classLabel: FALSE
//
compound: COc1ccc(NC(=O)n2nc(N)c3ccccc32)cc1OC
classLabel: FALSE

Task item: For COCC1CCCN1c1ccc(/C=C(/C#N)C(N)=S)cc1 (stereo unspecified) , what call appears in the results of this test?
Reply: FALSE

Task item: For `Cc1cc2cc3cc(C)c(N(C)C)cc3nc2cc1N(C)C` , what call appears in the results of this test?
Reply: FALSE

###

Tested on: HOP-62 NSCLC
assay: NCI tumour cell line growth inhibition, 48 h
measureName: GI50

entrySmiles: Cc1nc2sccn2c(=O)c1CCN1CCC(=C(c2ccc(F)cc2)c2ccc(F)cc2)CC1
targetOfAssay: HOP-62 NSCLC
measureName: GI50
valueObserved: 17.9 µM
//
entrySmiles: O=C1C(Br)=CC2(C=C1Br)CCN=c1c2c(O)c2nc3ccccc3c3ccnc1c23
targetOfAssay: HOP-62 NSCLC
measureName: GI50
valueObserved: 7.99 µM
//
entrySmiles: O=C(OCc1ccccc1)N1CCN(/[N+]([O-])=N/Oc2ccc([N+](=O)[O-])cc2[N+](=O)[O-])CC1
targetOfAssay: HOP-62 NSCLC
measureName: GI50
valueObserved: 12.3 µM

Task item: Item `CCC[CH2][Sn]([CH2]CCC)([O]C(=O)c1cc(F)cc(F)c1)[O]C(=O)c1cc(F)cc(F)c1` : provide GI50
Reply: 2.39 µM

Task item: Item `CCCCCCCC/C=C/CCCCCCCC1=NCC[N+]1(CCO)CCO` : provide GI50
Reply: 6.36 µM

###

Test system: SNB-19 CNS
assay: NCI tumour cell line growth inhibition, 48 h
Reported values of TGI for individual entries

molecule: CON(C)C(C#N)=C(C#N)C#N
targetOfAssay: SNB-19 CNS
TGI: > 10 µM
--
molecule: COc1ccc(Nn2c(SCC(=O)Nc3nc(-c4ccc(Cl)cc4)cs3)nc(C)c2C)cc1
targetOfAssay: SNB-19 CNS
TGI: > 100 µM
--
molecule: CCC[CH2][Sn]([CH2]CCC)([O]C(=O)c1cc(F)cc(F)c1)[O]C(=O)c1cc(F)cc(F)c1
targetOfAssay: SNB-19 CNS
TGI: 2.83 µM
--
molecule: CC(C)NC(=O)CN1CCN(C2=CC(=O)c3c(O)ccc(O)c3C2=O)CC1
targetOfAssay: SNB-19 CNS
TGI: 37.2 µM
--
molecule: CCCn1c(SCC)c2ccccc2c1-c1nc(F)nc(F)n1
targetOfAssay: SNB-19 CNS
TGI: > 100 µM

Task item: Item `Cc1nc2sccn2c(=O)c1CCN1CCC(=C(c2ccc(F)cc2)c2ccc(F)cc2)CC1` : provide TGI
Reply: 30.3 µM

###

Tested on: HOP-18 NSCLC
assay: NCI tumour cell line growth inhibition, 48 h
Reported values of TGI for individual entries

Solved entries:
compound: CCNCC(=O)O[C@]1(CC)C(=O)OCc2c1cc1n(c2=O)Cc2cc3ccccc3nc2-1
valueObserved: 20.5 µM

compound: N#Cc1c(-c2ccco2)cc(-c2ccc(NCc3nc4ccccc4[nH]3)cc2)nc1N
valueObserved: 77.9 µM

compound: COc1ccc(C2C3C(=O)C=CC(=O)C3[C@@H]2C)cc1OC (stereo partly specified)
valueObserved: > 100 µM

compound: COc1ccc(C2=NNC(=O)OC2c2ccccc2)cc1 (stereo unspecified)
valueObserved: > 100 µM

compound: COc1ccc(/C=C2\CCCCC2=O)cc1
valueObserved: > 100 µM

compound: CCCC/C=C/C1Cc2ccccc2CN1S(=O)(=O)c1ccc(C)cc1 (stereo unspecified)
valueObserved: > 100 µM

compound: COc1cc(C2C(Cl)C(=O)N2NC(=O)c2ccccc2O)ccc1O (stereo unspecified)
valueObserved: > 100 µM

compound: Cc1cc2c(=O)n(-c3ccc(F)cc3)c(C)nc2c(C(=O)O)c1C
valueObserved: > 100 µM

compound: CC1C[C@H](OC(N)=O)C(C)CC1=O (stereo partly specified)
valueObserved: > 100 µM

compound: CC(=O)O/N=C/c1ncccc1OC(C)=O
valueObserved: > 100 µM

Task item: Item `O=S(O)CCCCCSSCCCCSSCCCCCS(=O)O` : provide TGI
Reply: > 100 µM

Task item: Item CSC(C1c2ccccc2N(C)C2=NC(=O)N(C)C(=O)C21Cl)S(=O)(=O)c1ccc(C)cc1 (stereo unspecified) : provide TGI
Reply: > 100 µM
